Origin of measurements: paper PMC4307180

Measured pIC50 (purified FLT3 WT (Homo sapiens))
Numbers only, as −log10 of the molar value.

# Structure String, pIC50
data = [
    ("CC[C@@H]1NC(=O)c2c1c1c3ccccc3[nH]c1c1[nH]c3ccccc3c21", 5.70),
]

Hello, I would appreciate it if you could give pIC50 for each entry below.
1. C[C@@H]1NC(=O)c2c1c1c3ccccc3n(CCCCN)c1c1[nH]c3ccccc3c21
2. CC(C)C[C@@H]1NC(=O)c2c1c1c3ccccc3n(CCCCN)c1c1[nH]c3ccccc3c21

a:
8.00
6.28

###

Tested on: Ba/F3 FLT3 ITD + Y842H
Assay: Ba/F3 cell viability, FLT3 ITD + Y842H
Assay type: cell-based
Settings: Mus musculus, Ba/F3, 48 hr, ± SEM
Experimental: Stable Ba/F3 lines were generated by retroviral spinfection with the appropriate mutated plasmid as previously described ([Smith et al., 2012]). Exponentially growing cells (5 × 10^3 cells per well) were plated in each well of a 96-well plate with 0.1 ml of RPMI 1640 + 10% (vol/vol) FCS containing the appropriate concentration of drug in triplicate, and cell viability was assessed after 48 hr as previously described ([Smith et al., 2012]). […]
Measured Property: IC50
Report the figure along with its unit, number first.

q: Item CC1NC(=O)c2c1c1c3ccccc3n(CCCN)c1c1[nH]c3ccccc3c21 (stereo not shown) has what recorded IC50?
a: 38 nM
